# test.description: The drug is tested on Bacteroides dorei strain: DSM17855 for biotransformation. The drug concentrations were measured before and after a 12-h incubation by liquid-chromatography-coupled mass spectrometry (LC–MS)
# particulars: phocaeicola dorei, 2 µM
parameter: Bacterial Biotransformation

1. CCC1(c2ccc(N)cc2)CCC(=O)NC1=O (stereo not given) [AMINOGLUTETHIMIDE] ... Compound NOT metabolized
2. CN(C)CCOC(C)(c1ccccc1)c1ccccn1.O=C(O)CCC(=O)O (stereo not given) [DOXYLAMINE SUCCINATE] ... Compound NOT metabolized
3. CCN(CC)CCOC(=O)C1(C2CCCCC2)CCCCC1 ... Compound metabolized
4. O=C1[C@H](CC[C@H](O)c2ccc(F)cc2)[C@@H](c2ccc(O)cc2)N1c1ccc(F)cc1 ... Compound NOT metabolized
5. O=C(CCCN1CCC(O)(c2ccc(Cl)cc2)CC1)c1ccc(F)cc1 ... Compound NOT metabolized
6. CCOC(=O)[C@H](CCc1ccccc1)N[C@H]1CCc2ccccc2N(CC(=O)O)C1=O ... Compound metabolized
7. CN(C)CCC=C1c2ccccc2COc2ccccc21 [DOXEPIN] ... Compound NOT metabolized
8. Cc1ccc(/C(=C\CN2CCCC2)c2ccccn2)cc1 ... Compound NOT metabolized
9. CCCCc1nc(Cl)c(CO)n1Cc1ccc(-c2ccccc2-c2nn[nH]n2)cc1 ... Compound metabolized
10. CC(=O)OCC(=O)NCCCOc1cccc(CN2CCCCC2)c1 [ROXATIDINE ACETATE] ... Compound metabolized
11. Br.COc1ccc2c(c1)[C@]13CCCC[C@@H]1[C@H](C2)N(C)CC3.O [DEXTROMETHORPHAN HYDROBROMIDE] ... Compound NOT metabolized
12. CC(C)(C)NC[C@H](O)COc1nsnc1N1CCOCC1.O=C(O)/C=C\C(=O)O [TIMOLOL MALEATE] ... Compound NOT metabolized
13. CN1[C@@H]2CC[C@H]1C[C@@H](OC(=O)c1c[nH]c3ccccc13)C2 ... Compound NOT metabolized
14. CN1C(C(=O)Nc2ccccn2)=C(O)c2sccc2S1(=O)=O ... Compound NOT metabolized
15. COc1ccc2c(c1OC)C(=O)O[C@@H]2[C@H]1c2c(cc3c(c2OC)OCO3)CCN1C ... Compound metabolized
16. Cc1ccc(S(=O)(=O)NC(=O)NN2CCCCCC2)cc1 [TOLAZAMIDE] ... Compound metabolized
17. COc1ccc(Cc2nccc3cc(OC)c(OC)cc23)cc1OC ... Compound metabolized
18. CCN(CC)CC#CCOC(=O)C(O)(c1ccccc1)C1CCCCC1.Cl (stereo not given) [OXYBUTYNIN CHLORIDE] ... Compound metabolized
19. OC(c1cc(C(F)(F)F)nc2c(C(F)(F)F)cccc12)C1CCCCN1 (stereo not given) ... Compound NOT metabolized
20. Nc1ccc(/N=N/c2ccccc2)c(N)n1 ... Compound metabolized
21. CC#CCn1c(N2CCC[C@@H](N)C2)nc2c1c(=O)n(Cc1nc(C)c3ccccc3n1)c(=O)n2C ... Compound metabolized
22. O=P(O)(O)O.c1ccc(CN(CC2=NCCN2)c2ccccc2)cc1 [ANTAZOLINE PHOSPHATE] ... Compound NOT metabolized
23. COc1ccc2[nH]c([S+]([O-])Cc3ncc(C)c(OC)c3C)nc2c1 (stereo not given) ... Compound metabolized
24. CC#C[C@]1(O)CC[C@H]2[C@@H]3CCC4=CC(=O)CCC4=C3[C@@H](c3ccc(N(C)C)cc3)C[C@@]21C ... Compound metabolized
25. Cc1ccnc2c1NC(=O)c1cccnc1N2C1CC1 ... Compound NOT metabolized
26. CCCc1nc2c(C)cc(-c3nc4ccccc4n3C)cc2n1Cc1ccc(-c2ccccc2C(=O)O)cc1 ... Compound metabolized
27. O=c1n(CCCN2CCN(c3cccc(Cl)c3)CC2)nc2ccccn12 ... Compound NOT metabolized
28. CNNCc1ccc(C(=O)NC(C)C)cc1 ... Compound NOT metabolized
29. COCCc1ccc(OCC(O)CNC(C)C)cc1.COCCc1ccc(OCC(O)CNC(C)C)cc1.O=C(O)C(O)C(O)C(=O)O (stereo not given) [METOPROLOL TARTRATE] ... Compound NOT metabolized
30. CC(CN(C)C)CN1c2ccccc2CCc2ccccc21.O=C(O)/C=C\C(=O)O (stereo not given) [TRIMIPRAMINE MALEATE] ... Compound NOT metabolized
31. OCCN(CCO)c1nc(N2CCCCC2)c2nc(N(CCO)CCO)nc(N3CCCCC3)c2n1 ... Compound metabolized
32. O=C(Nc1ccccc1)OCC(CN1CCCCC1)OC(=O)Nc1ccccc1 (stereo not given) ... Compound NOT metabolized
33. CO[C@]12C[C@@H](COC(=O)c3cncc(Br)c3)CN(C)[C@@H]1Cc1cn(C)c3cccc2c13 ... Compound metabolized
34. COc1ccc2c(c1)c(CC(=O)O)c(C)n2C(=O)c1ccc(Cl)cc1 ... Compound metabolized
35. CN(C)CCc1c[nH]c2ccc(Cn3cncn3)cc12.O=C(O)c1ccccc1 [RIZATRIPTAN BENZOATE] ... Compound NOT metabolized

###

# test.description: The drug is tested on Bacteroides finegoldii strain: DSM17565 for biotransformation. The drug concentrations were measured before and after a 12-h incubation by liquid-chromatography-coupled mass spectrometry (LC–MS)
# particulars: 2 µM
parameter: Bacterial Biotransformation

1. CC(C)NCC(O)c1ccc(NS(C)(=O)=O)cc1 (stereo unspecified) ... Compound NOT metabolized
2. CC(CN(C)C)CN1c2ccccc2CCc2ccccc21.O=C(O)/C=C\C(=O)O (stereo unspecified) [TRIMIPRAMINE MALEATE] ... Compound NOT metabolized
3. Nc1c2c(nc3ccccc13)CCCC2 ... Compound NOT metabolized
4. CNS(=O)(=O)Cc1ccc2[nH]cc(CCN(C)C)c2c1.O=C(O)CCC(=O)O [SUMATRIPTAN SUCCINATE] ... Compound NOT metabolized
5. C#C[C@]1(O)CC[C@H]2[C@@H]3CCC4=CC(=O)CC[C@@H]4[C@H]3CC[C@@]21CC ... Compound NOT metabolized
6. CCc1nc(N)nc(N)c1-c1ccc(Cl)cc1 ... Compound NOT metabolized
7. CN1CCC(=C2c3ccccc3CCc3cccnc32)CC1.O=C(O)/C=C\C(=O)O.O=C(O)/C=C\C(=O)O [AZATADINE MALEATE] ... Compound NOT metabolized
8. CNNCc1ccc(C(=O)NC(C)C)cc1 ... Compound NOT metabolized
9. CCN(CC)CCNC(=O)c1cc(S(C)(=O)=O)ccc1OC [TIAPRIDE] ... Compound NOT metabolized
10. CSc1ccc2c(c1)C(N1CCN(C)CC1)Cc1ccccc1S2.O=C(O)/C=C\C(=O)O (stereo unspecified) ... Compound NOT metabolized
11. CC(C)N(CCC(C(N)=O)(c1ccccc1)c1ccccn1)C(C)C.O=P(O)(O)O (stereo unspecified) [DISOPYRAMIDE PHOSPHATE] ... Compound NOT metabolized
12. CC(=O)CC(c1ccccc1)c1c(O)c2ccccc2oc1=O (stereo unspecified) ... Compound NOT metabolized
13. CCOC(=O)[C@H](CCc1ccccc1)N[C@@H](C)C(=O)N1CCC[C@H]1C(=O)O.O=C(O)/C=C\C(=O)O [ENALAPRIL MALEATE] ... Compound NOT metabolized
14. CC(C)c1nc(N(C)S(C)(=O)=O)nc(-c2ccc(F)cc2)c1/C=C/[C@@H](O)C[C@@H](O)CC(=O)[O-].CC(C)c1nc(N(C)S(C)(=O)=O)nc(-c2ccc(F)cc2)c1/C=C/[C@@H](O)C[C@@H](O)CC(=O)[O-].[Ca+2] ... Compound NOT metabolized
15. CN(C(=O)CN(CCO)CC(=O)N(C)C(C)(C)Cc1ccccc1)C(C)(C)Cc1ccccc1 ... Compound NOT metabolized

###

# test.description: The drug is tested on Bacteroides xylanisolvens strain: DSM18836 for biotransformation. The drug concentrations were measured before and after a 12-h incubation by liquid-chromatography-coupled mass spectrometry (LC–MS)
# particulars: 2 µM
parameter: Bacterial Biotransformation

1. O=C(O)COCCN1CCN(C(c2ccccc2)c2ccc(Cl)cc2)CC1 (stereo not given) [CETIRIZINE] ... Compound metabolized
2. CSc1ccc2c(c1)C(N1CCN(C)CC1)Cc1ccccc1S2.O=C(O)/C=C\C(=O)O (stereo not given) ... Compound NOT metabolized
3. CCCc1nc(C(C)(C)O)c(C(=O)OCc2oc(=O)oc2C)n1Cc1ccc(-c2ccccc2-c2nnn[nH]2)cc1 [OLMESARTAN MEDOXOMIL] ... Compound metabolized
4. COc1ccc(/C=C/C(=O)Nc2ccccc2C(=O)O)cc1OC ... Compound NOT metabolized
5. CC(C)(Oc1ccc(CCNC(=O)c2ccc(Cl)cc2)cc1)C(=O)O [BEZAFIBRATE] ... Compound metabolized
